Target system: T1, RBFOX1 RRM (Homo sapiens, UniProt Q9NWB1 109-208)
T1 sequence: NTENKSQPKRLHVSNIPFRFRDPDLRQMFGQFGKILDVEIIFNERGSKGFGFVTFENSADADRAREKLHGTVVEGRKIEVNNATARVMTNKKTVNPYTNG
Assay: EMSA; HiTS-Eq, 1 nM pool, 10 min; buffer printed only for the single-RNA assays: 10 mM Tris pH 7.5, 150 mM NaCl, 3.4 mM EDTA, 0.001% NP-40, 30 C
Experimental conditions: tags: His6 N-terminal (pET28a); label: 5' 32P
The full ranking holds about 16,000 sequences; the median of “ka relative to ugcaugu” is about 0.0091, and the highest 2% start at about 0.032. For the sample, the highest values were picked, then their nearest neighbours and some sequences at random.
A collection of binders and their measured binding signal

So, CCAGGCC (DNA:RNA) RNA: GGGAGACCGGAAUUCAGAUUGUCCCCAGGCCUUAAAUCCCGUCGUAGCCACCA DNA 1: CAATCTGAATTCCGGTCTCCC DNA 2: TGGTGGCTACGACGGGATT ? Its binding signal was 0.0113 KA relative to UGCAUGU

So, CCUUACC (DNA:RNA) RNA: GGGAGACCGGAAUUCAGAUUGUCCCCUUACCUUAAAUCCCGUCGUAGCCACCA DNA 1: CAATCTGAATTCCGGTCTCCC DNA 2: TGGTGGCTACGACGGGATT ? Its binding signal was 0.00281 KA relative to UGCAUGU

So, CAGGCCG (DNA:RNA) RNA: GGGAGACCGGAAUUCAGAUUGUCCCAGGCCGUUAAAUCCCGUCGUAGCCACCA DNA 1: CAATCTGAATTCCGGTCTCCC DNA 2: TGGTGGCTACGACGGGATT ? Its binding signal was 0.00997 KA relative to UGCAUGU

So, UGAUCGU (DNA:RNA) RNA: GGGAGACCGGAAUUCAGAUUGUCCUGAUCGUUUAAAUCCCGUCGUAGCCACCA DNA 1: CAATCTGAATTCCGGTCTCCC DNA 2: TGGTGGCTACGACGGGATT ? Its binding signal was 0.0285 KA relative to UGCAUGU

So, CGGAUCA (DNA:RNA) RNA: GGGAGACCGGAAUUCAGAUUGUCCCGGAUCAUUAAAUCCCGUCGUAGCCACCA DNA 1: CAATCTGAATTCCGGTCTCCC DNA 2: TGGTGGCTACGACGGGATT ? Its binding signal was 0.0199 KA relative to UGCAUGU

So, AAAGUAC (DNA:RNA) RNA: GGGAGACCGGAAUUCAGAUUGUCCAAAGUACUUAAAUCCCGUCGUAGCCACCA DNA 1: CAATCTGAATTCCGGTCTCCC DNA 2: TGGTGGCTACGACGGGATT ? Its binding signal was 0.00371 KA relative to UGCAUGU

So, UUCGUAA (DNA:RNA) RNA: GGGAGACCGGAAUUCAGAUUGUCCUUCGUAAUUAAAUCCCGUCGUAGCCACCA DNA 1: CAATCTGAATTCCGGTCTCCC DNA 2: TGGTGGCTACGACGGGATT ? Its binding signal was 0.00742 KA relative to UGCAUGU

So, AGCCGGG (DNA:RNA) RNA: GGGAGACCGGAAUUCAGAUUGUCCAGCCGGGUUAAAUCCCGUCGUAGCCACCA DNA 1: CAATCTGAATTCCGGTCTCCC DNA 2: TGGTGGCTACGACGGGATT ? Its binding signal was 0.0115 KA relative to UGCAUGU

So, CGAGGGG (DNA:RNA) RNA: GGGAGACCGGAAUUCAGAUUGUCCCGAGGGGUUAAAUCCCGUCGUAGCCACCA DNA 1: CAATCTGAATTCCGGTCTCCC DNA 2: TGGTGGCTACGACGGGATT ? Its binding signal was 0.00639 KA relative to UGCAUGU

This collection of values is drawn from paper PMC9911399.
